endpoint name: melting point

# annotated cases, reported melting point shown
CC(C)(C)c1cc(-c2nc3ncccc3o2)cc(C(C)(C)C)c1 | 154 to 156 °C
CN1CCN(c2ccc(Nc3ncc4c(n3)SC(=Cc3ccc(OCc5ccccc5)cc3)C(=O)N4)cc2)CC1 | 238 to 240 °C
COC(=O)/C(=C/C=C/c1cc2ccccc2o1)OC | 108 °C
COc1ccc(Oc2c(N)cc(C(=O)O)cc2S)cc1 | 182 to 184 °C
COc1cccc(OC)c1-c1cc(C(=O)NC2(C(=O)O)C3CC4CC(C3)CC2C4)nn1-c1cccc2ncccc12 (stereo not drawn) | > 260 °C
CC(C)(C)OC(=O)N1CCN(c2nccc(Oc3ccc(NC(=O)c4cc(F)cc(N5CCOCC5)c4)c4ccccc34)n2)CC1 | 131 to 133 °C
O=c1[nH]c2ncc(-c3ccc(-c4n[nH]c(C(F)(F)F)n4)cc3)nc2n1CC1CCCCC1 | 303 to 305 °C

Would you kindly look at the next entry?
Could you share which melting point value was measured for `O=C1N=C(N2CCNCC2)SC1=Cc1cccc(-c2cc(F)c(O)c(C34CC5CC(CC(C5)C3)C4)c2)c1` ?
230 to 233 °C
